tested on: HepaRG spheroids; assay: Combined HCI (HCS) and cellular ATP 3D assay in HepaRG spheroids; conditions: HepaRG; ATP endpoint; cut-off <25x Avg Cmax
ENDPOINT_NAME: HepaRG <25x Avg Cmax ATP

INSERT INTO measurements (compound, endpoint_name, reading) VALUES
  ('C[N+](C)(C)CC(=O)O [betaine, reference compound]', 'HepaRG <25x Avg Cmax ATP', '-ve'),
  ('CN1CCN(C2=Nc3cc(Cl)ccc3Nc3ccccc32)CC1', 'HepaRG <25x Avg Cmax ATP', '+ve'),
  ('CCN(CC)CC#CCOC(=O)C(O)(c1ccccc1)C1CCCCC1 (stereo not drawn)', 'HepaRG <25x Avg Cmax ATP', '-ve');

# credit: paper PMC7395068
